- experiment_description: Stability of β-ketoacid substrates (decarboxylation, 1H-NMR or SPE-MS/MS)
- Assay type: physicochemical
- condition_summary: deuterated PBS, PBS, 37° C.
observed_property: half-life (h)

[P] CC(C)CCCCC(=O)N[C@@H](CO)C(=O)N[C@@H](CC(C)C)C(=O)C(C)(C)C(=O)O [Compound 11a]
[Q] CC(C)CCCCC(=O)N[C@@H](CO)C(=O)N[C@@H](CC(C)C)C(=O)C(C)(CO)C(=O)O (single isomer, unassigned) [Compound 11c]
Incoming: Determine, for P and Q , which has the greater value of half-life. Identify your selection by its label.
Outgoing: P
